# Tested on: SK-MEL-2
# assayDetails: NCI tumour cell line growth inhibition, 48 h
Activity calls are given as the source filed them. Cut-off read from the data, not from the text of the source: active = GI50 up to about 1.1 µM and inactive = higher.
Assignment: determine reported GI50 for the given molecules.

IN: What GI50 appears in the records for this molecule with SK-MEL-2? Oc1cc(-c2ccccc2)cn2c1nc1ccccc12
OUT: 2.11 µM (inactive)

IN: What GI50 appears in the records for this molecule with SK-MEL-2? OC1CN2Cc3cc4c(cc3[C@]13C=C[C@@H](O)CC23)OCO4 (some centres undefined)
OUT: 31.6 µM (inactive)

IN: What GI50 appears in the records for this molecule with SK-MEL-2? O=[N+]([O-])/C(C(Cl)=C(Cl)Cl)=C(\N1CCCCC1)n1nnc2ccccc21
OUT: 17.1 µM (inactive)

IN: What GI50 appears in the records for this molecule with SK-MEL-2? CCCCCCCCCCCCCCCCOCC(COP(=O)([O-])OCC[n+]1ccc(N(C)C)cc1)OCC (centres undefined)
OUT: 13.4 µM (inactive)

* * *

Assignment: determine reported GI50 for the given molecules.
# Tested on: DLD-1
# assayDetails: NCI tumour cell line growth inhibition, 48 h
The source made the active and inactive calls. No stated cut-off is given here; in the data, active = GI50 up to about 1.1 µM and inactive = higher.

IN: Which GI50 value belongs to O=c1[nH]c(=O)n(C2CC(O)C(O)C(CO)O2)cc1F (centres undefined) ?
OUT: > 100 µM (inactive)

IN: Which GI50 value belongs to COc1ccc([Se]c2ccc(OC)cc2OC)c(OC)c1 ?
OUT: 17.4 µM (inactive)

IN: Which GI50 value belongs to COC1CCC(O)C(CO)O1 (centres undefined) ?
OUT: > 100 µM (inactive)

IN: Which GI50 value belongs to CCC1(N=[N+]=[N-])C(=O)c2ccccc2N(C)C1=O (centres undefined) ?
OUT: > 100 µM (inactive)

IN: Which GI50 value belongs to COc1ccc(NC(=O)C(=O)Cc2nc3ccc([N+](=O)[O-])cc3nc2O)c(OC)c1 ?
OUT: > 100 µM (inactive)

IN: Which GI50 value belongs to CCCCCCCCCCCC(=O)OC(COC(N)=O)COc1ccc(Cl)cc1 (centres undefined) ?
OUT: 38 µM (inactive)

IN: Which GI50 value belongs to CC1(c2ccccc2Cl)C(C#N)C(=O)NC(=O)C1C#N (centres undefined) ?
OUT: 68.7 µM (inactive)

IN: Which GI50 value belongs to COc1cc2c3cc1Oc1c(OC)c(OC)cc4c1[C@@H](Cc1ccc(O)c(c1)Oc1ccc(cc1)C[C@@H]3N(C)CC2)N(C)CC4.c1ccccc1 ?
OUT: 19.1 µM (inactive)

IN: Which GI50 value belongs to Oc1ccncc1-c1cnccc1O ?
OUT: > 100 µM (inactive)

IN: Which GI50 value belongs to COC(=O)/C(=N\NC(=O)C[N+](C)(C)C)C(C(=O)OC)C(=O)C(=O)Nc1ccccc1C(N)=O (centres undefined) ?
OUT: > 100 µM (inactive)

IN: Which GI50 value belongs to C[C@@H]1OC2(O)[C@H]3CCCN3S(=O)(=O)CCN2C1=O (some centres undefined) ?
OUT: > 100 µM (inactive)

IN: Which GI50 value belongs to Cc1ccc(S(=O)(=O)N(/N=C(\N)Oc2ccc(Cl)cc2)C(=N)Oc2ccc(Cl)cc2)cc1 ?
OUT: > 100 µM (inactive)

IN: Which GI50 value belongs to CC1(C)CC(N2CCN(C3CC(C)(C)NC(C)(C)C3)CC2)CC(C)(C)N1 ?
OUT: > 100 µM (inactive)

IN: Which GI50 value belongs to Cc1ccc(S(=O)(=O)N(/N=C/C=C/c2ccccc2)c2nnc(-c3ccccc3)c(-c3ccccc3)n2)cc1 ?
OUT: 21.9 µM (inactive)

IN: Which GI50 value belongs to Cc1cccc(C(C)(C)C)c1NC(=O)C(=O)C(C(=O)/C=C\c1ccccc1)C1OC(=O)c2ccccc21 (centres undefined) ?
OUT: > 100 µM (inactive)

IN: Which GI50 value belongs to CN(C)c1ccc(/C=C2\CNC/C(=C\c3ccc(N(C)C)cc3)C2=O)cc1 ?
OUT: 18.9 µM (inactive)

IN: Which GI50 value belongs to CC1=C(/C=C/C2=CC(=C\C(=O)O)/CC(C3=C(C)CCCC3(C)C)C2)C(C)(C)CCC1 (centres undefined) ?
OUT: 12.2 µM (inactive)

IN: Which GI50 value belongs to CCc1cccc(C)c1NC(=O)CC(=O)NNC(N)=S ?
OUT: > 100 µM (inactive)

IN: Which GI50 value belongs to O=c1c2cccnc2ncn1CCCN1CCCC1 ?
OUT: > 100 µM (inactive)

IN: Which GI50 value belongs to CSc1snc2sc3c(Cl)nnnc3c12 ?
OUT: 10 µM (inactive)

IN: Which GI50 value belongs to O=C1CCC(c2ccccc2)C(O)(C(=O)O)C1 (centres undefined) ?
OUT: > 100 µM (inactive)

IN: Which GI50 value belongs to O=C1NC2(CCCC2)C2CCCCC12O (centres undefined) ?
OUT: > 100 µM (inactive)

IN: Which GI50 value belongs to CC1(C)OC2CC(=O)OCC23C1CC(=O)C1(C)C3CCC2(C)C(c3ccoc3)OC(=O)C3OC321 (centres undefined) ?
OUT: > 125 µM (inactive)

IN: Which GI50 value belongs to C1=C2/CC[C@H](Sc3ccccc3)C2C2(CCCCC/1)OCCO2 (some centres undefined) ?
OUT: 33 µM (inactive)

* * *

Assignment: determine reported GI50 for the given compounds.
# Test system: Malme-3M
# assayDetails: NCI tumour cell line growth inhibition, 48 h
Calls of active or inactive are those of the source. No stated cut-off is given here; in the data, active = GI50 up to about 1.1 µM and inactive = higher.

IN: Which GI50 value belongs to Cc1nn(C2OC(CO)C(O)C(F)C2O)c(=O)[nH]c1=O (stereo not drawn) ?
OUT: > 100 µM (inactive)

IN: Which GI50 value belongs to Cc1cc(N(CCCl)CCCl)ccc1/C=N/NC(=O)Cc1cc(=O)oc2cc(O)ccc12 ?
OUT: 12.6 µM (inactive)

IN: Which GI50 value belongs to COc1ccc(-c2ccc(C(=O)C=P(c3ccccc3)(c3ccccc3)c3ccccc3)cc2)cc1 ?
OUT: 18.7 µM (inactive)

* * *

# System: UO-31
# assayDetails: NCI tumour cell line growth inhibition, 48 h
The source made the active and inactive calls. No stated cut-off is given here; in the data, active = GI50 up to about 1.1 µM and inactive = higher.
measure: GI50

IN: Which GI50 value belongs to CC1=C2C(=O)NN=C2CCN1c1ccc(Br)cc1 ?
OUT: 54.3 µM (inactive)

IN: Which GI50 value belongs to CCOC(=O)C12OC(CCC1=O)C(C(=O)OC)=C2C(=O)OC (centres undefined) ?
OUT: > 10 µM (inactive)

IN: Which GI50 value belongs to O=c1c2ccccc2sc2nc(CCl)nn12 ?
OUT: 8.28 µM (inactive)

IN: Which GI50 value belongs to COc1ccc([Se]c2ccc(OC)cc2)cc1 ?
OUT: 2.09 µM (inactive)

IN: Which GI50 value belongs to CC1OC(OC2C(O)COC(OC3C(C)OC(OC4C(OC(=O)[C@]56CCC(C)(C)C[C@@H]5C5=CCC7[C@@]8(C)C[C@H](O)[C@H](OC9OC(CO)C(O)C(OC%10OC(CO)C(O)C(O)C%10O)C9O)[C@@](C)(CO)[C@@H]8CC[C@@]7(C)[C@]5(C)CC6)OCC(O)C4O)C(O)C3O)C2O)C(O)C(O)C1O (some centres undefined) ?
OUT: 4.17 µM (inactive)

IN: Which GI50 value belongs to COCN1C(=O)[C@@H]2C[C@@H](OC/C=C/CBr)CN2C(=O)c2ccccc21 ?
OUT: 18.9 µM (inactive)

IN: Which GI50 value belongs to CON(C)C(=O)[C@H]1C[C@@]1(C)CO ?
OUT: > 100 µM (inactive)

IN: Which GI50 value belongs to COc1ccc(NC(=O)CC(=O)n2nc(-c3ccccc3)c(/N=N/c3ccccc3C)c2-c2ccccc2)cc1 ?
OUT: 35.6 µM (inactive)

IN: Which GI50 value belongs to Cc1ccc(-c2cc(-c3ccco3)c(C#N)c(=O)n2C2OC(OC(=O)c3ccccc3)C(OC(=O)c3ccccc3)C2OC(=O)c2ccccc2)cc1 (centres undefined) ?
OUT: > 100 µM (inactive)

IN: Which GI50 value belongs to COC(=O)C1=CSC2(S1)C(C(=O)OC)=CSc1c2ssc1=O (centres undefined) ?
OUT: 1.84 µM (inactive)

IN: Which GI50 value belongs to O=c1oc2ccccc2c2c1Sc1ccccc1N2 ?
OUT: > 100 µM (inactive)

IN: Which GI50 value belongs to C=C1N(C=O)C(C)(C)N(O)C1(C)C ?
OUT: > 100 µM (inactive)

IN: Which GI50 value belongs to CCCCn1/c(=N/C(=S)N(C)C)ss/c1=N\C(=S)N(C)C ?
OUT: > 100 µM (inactive)

IN: Which GI50 value belongs to O=c1ccc2nc3cc(Br)ccc3sc-2c1 ?
OUT: > 100 µM (inactive)

IN: Which GI50 value belongs to COc1ccc(C[C@H]2NC[C@H](O)[C@H]2OC(C)=O)cc1 ?
OUT: 0.0404 µM (active)

IN: Which GI50 value belongs to Clc1ccc(CNc2nc(Cl)c3nc[nH]c3n2)cc1Cl ?
OUT: 11.4 µM (inactive)

IN: Which GI50 value belongs to C=C1C(=O)O[C@H]2C[C@@H]1C(=O)CC(C)CCCC(C)=CCC[C@@]2(C)O (some centres undefined) ?
OUT: > 25 µM (inactive)

IN: Which GI50 value belongs to O=C(O)c1ccccc1NC(=O)C1CCCCC1 ?
OUT: > 100 µM (inactive)

IN: Which GI50 value belongs to CC(=O)N1C(c2[nH]c3ccccc3c2-c2ccccc2)CCN1c1ccccc1 (centres undefined) ?
OUT: > 10 µM (inactive)

IN: Which GI50 value belongs to O=c1[nH]nc(-c2ccccc2)n1/N=C\c1ccccc1 ?
OUT: > 100 µM (inactive)

IN: Which GI50 value belongs to CC1=C(N2CC2)C(=O)c2nc3n(c2C1=O)CCC3O (centres undefined) ?
OUT: 0.388 µM (active)

IN: Which GI50 value belongs to CN1C(=O)C(CC(=O)O)NC1=S (centres undefined) ?
OUT: > 100 µM (inactive)

IN: Which GI50 value belongs to O=C1OCC(C(=O)c2cccc(O)c2)C1=O (centres undefined) ?
OUT: > 100 µM (inactive)

IN: Which GI50 value belongs to O=S(=O)(O)C(O)/C=C/c1ccccc1 (centres undefined) ?
OUT: > 100 µM (inactive)

IN: Which GI50 value belongs to CSc1nc(NC2OC(COC(C)=O)C(OC(C)=O)C(OC(C)=O)C2OC(C)=O)c(/N=C/C=N/c2c(NC3OC(COC(C)=O)C(OC(C)=O)C(OC(C)=O)C3OC(C)=O)nc(SC)[nH]c2=O)c(=O)[nH]1 (centres undefined) ?
OUT: > 100 µM (inactive)

IN: Which GI50 value belongs to CC(O[Si](c1ccccc1)(c1ccccc1)C(C)(C)C)[C@H](NC(=O)OC(C)(C)C)C(=O)O[Si](c1ccccc1)(c1ccccc1)C(C)(C)C (some centres undefined) ?
OUT: 13.2 µM (inactive)

IN: Which GI50 value belongs to CC(C)C[C@@H](NC(=O)[C@@H](Cc1cccc2ccccc12)NC(=O)N1CCOCC1)B(O)O ?
OUT: > 100 µM (inactive)

IN: Which GI50 value belongs to COc1ccc(/C=C/C(=O)CCN2CCN(CCC(=O)/C=C/c3ccc(OC)cc3)CC2)cc1 ?
OUT: 14.6 µM (inactive)

IN: Which GI50 value belongs to CC(=O)C12C[C@](C#N)(N3CCCCCC3)C1C=Cc1ccccc12 (some centres undefined) ?
OUT: > 100 µM (inactive)
